This section presents compounds with their documented z-score values.
experiment: qHTS for identification of novel therapeutic agents for treatment of microphthalmiaassociated transcription factor (MiT) renal cell carcinoma (RCC) (AID 1963991); details: TFE3-RCC viability, CellTiter-Glo, 48 h; measured here: UOK124 Z-AUC; stronger effect = lower value;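 also: curves scaled with 100% = DMSO viability and 0% = empty wells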
Results filed as inconclusive are left out.
Form field (numeric): enter value without unit.

Illustrative cases are given below, each with its answer.
COMPOUND | z-score
Cc1cncc2cccc(S(=O)(=O)N3CCCN(C(=O)CN)C[C@@H]3C)c12 | 0.196
C#CCC(Cc1cnc2nc(N)nc(N)c2n1)c1ccc(C(=O)N[C@@H](CCC(=O)O)C(=O)O)cc1 (some centres undefined) | -2.51

Endpoint output: z-score of CCOc1cc2ncc(C#N)c(Nc3ccc(OCc4ccccn4)c(Cl)c3)c2cc1NC(=O)C=CCN(C)C . Value? -0.947

Endpoint output: z-score of COc1cc(OC)c(NC(=O)Nc2cc(C)on2)cc1Cl . Value? 0.71

###

experiment: Quantitative High-Throughput drug screen in 47 multiple myeloma cell lines against the NCATS MIPE library collection: EJM_DSMZ cell viability assay (AID 1918926; also: nearly all actives have a fitted effect of over 30% in size); settings: EJM myeloma cell viability, CellTiter-Glo ATP, 48 h; series mostly up to 45.8 µM
Results filed as inconclusive are left out. Active and inactive are the calls of the source. Calls come from the whole dose curve; as a rule, active = well fitted cell-killing curve with a large enough effect; inconclusive = small, poorly fitted or top-dose-only effect, or effect the other way; inactive = no such curve, though single readings can be large or run the other way.
Respond with a class label; see yes (1) = active, no (0) = inactive

Solved cases below.
COMPOUND | ANSWER_LABEL
CCOc1cc2ncc(C#N)c(Nc3ccc(OCc4ccccn4)c(Cl)c3)c2cc1NC(=O)C=CCN(C)C | yes (1)
Nc1ccn(C2CO[C@H](CO)O2)c(=O)n1 (stereo partly drawn) | no (0)
Nc1nc(=O)n([C@H]2C[C@H](O)[C@@H](CO)O2)cc1F | no (0)
CN(C)c1ccc2cc(C(=O)N[C@@H](CCCN=C(N)CCl)C(=O)NCc3ccccc3)ccc2c1 | yes (1)
CCc1cnn2c(NCc3ccc[n+]([O-])c3)cc(N3CCCC[C@@H]3CCO)nc12 | yes (1)

Assay result, entry N#CNC(=NCCCCCCOc1ccc(Cl)cc1)Nc1ccncc1 — outcome? yes (1)

###

test: qHTS of pediatric cancer cell lines to identify multiple opportunities for drug repurposing: Primary screen for OHS-50 cells (AID 1347103); settings: OHS-50 osteosarcoma viability, CellTiter-Glo luminescence, 48 h; series mostly up to 57.3 µM; also: nearly all actives have a fitted effect of over 40% in size
Inconclusive results are not listed. Calls of active or inactive are those of the source. Calls come from the whole dose curve; as a rule, active = well fitted cell-killing curve with a large enough effect; inconclusive = small, poorly fitted or top-dose-only effect; inactive = no such curve, though single readings can be large or run the other way.
Respond with a class label; see active, inactive

Solved cases below.
COMPOUND | ANSWER_LABEL
C[C@@H](Oc1ccc2[nH]nc(C=Cc3cnn(CCO)c3)c2c1)c1c(Cl)cncc1Cl | active
O=C1c2cccc(O)c2C(=O)c2c(O)cc(CO)cc21 | inactive
O=C1CSC(=O)N1C(CCc1ccncc1)COc1ccc(-c2cccc([N+](=O)[O-])c2)cc1 (stereo unspecified) | active

Assay result, entry COc1ccc(Nc2cc(-c3cnc(N)nc3)nc(N3CCOCC3)n2)cn1 — outcome? active

Assay result, entry O=C(Nc1cc2cc[nH]c2cn1)c1ccccc1 — outcome? active

Assay result, entry CC(=O)O[C@H]1C[C@@H]2CC[C@H]3[C@H]4C[C@H]([N+]5(C)CCCCC5)[C@@H](OC(C)=O)[C@@]4(C)CC[C@@H]3[C@@]2(C)C[C@H]1[N+]1(C)CCCCC1 — outcome? inactive

Assay result, entry O=C(C=Cc1ccc(CN(CCO)CCc2c[nH]c3ccccc23)cc1)NO — outcome? active

Assay result, entry COc1cc([C@@H]2c3cc4c(cc3[C@@H](O[C@@H]3O[C@@H]5CO[C@@H](c6cccs6)O[C@@H]5[C@H](O)[C@@H]3O)[C@H]3COC(=O)[C@H]23)OCO4)cc(OC)c1O — outcome? active

Assay result, entry CC(=O)N[C@@H]1[C@H](O[C@@H]2c3ccc(c(Cl)c3)Oc3cc4cc(c3O[C@H]3O[C@H](CO)[C@@H](O)[C@H](O)[C@H]3NC(=O)CCCCCCCC(C)C)Oc3ccc(cc3Cl)C[C@H]3NC(=O)[C@H](N)c5ccc(O)c(c5)Oc5cc(O)cc(c5)[C@H](NC3=O)C(=O)N[C@H]4C(=O)N[C@H]3C(=O)N[C@@H]2C(=O)N[C@@H](C(=O)O)c2cc(O)cc(O[C@H]4O[C@H](CO)[C@@H](O)[C@H](O)[C@H]4O)c2-c2cc3ccc2O)O[C@H](CO)[C@@H](O)[C@@H]1O — outcome? inactive

Assay result, entry CC(=O)[C@]1(O)Cc2c(O)c3c(c(O)c2[C@@H](O[C@H]2C[C@H](N)[C@@H](O)[C@H](C)O2)C1)C(=O)c1ccccc1C3=O — outcome? active

Assay result, entry OCc1ccccc1O[C@@H]1O[C@H](CO)[C@H](O)[C@H](O)[C@H]1O — outcome? inactive

Assay result, entry C[C@H]1O[C@H](O[C@H]2[C@H](O)[C@@H](O)[C@@H](O[C@H]3[C@H](O)[C@@H](O)C(O)O[C@H]3CO)O[C@H]2CO)[C@H](O)[C@@H](O)[C@H]1N[C@H]1C=C(CO)[C@@H](O)[C@H](O)[C@@H]1O (stereo partly specified) — outcome? active

Assay result, entry C[C@H]1COc2c(N3CCN(C)CC3)c(F)cc3c(=O)c(C(=O)O)cn1c23 — outcome? inactive

###

assay: Quantitative High-Throughput drug screen in 47 multiple myeloma cell lines against the NCATS MIPE library collection: XG6_PLB cell viability assay (AID 1919865); details: XG6 myeloma viability, CellTiter-Glo ATP luminescence, 48 h; series mostly up to 45.8 µM; also: nearly all actives have a fitted effect of over 40% in size
Results filed as inconclusive are left out. Activity calls are given as the source filed them. The call rests on the fitted dose curve; in most records, active means well fitted cell-killing curve with a large enough effect; inconclusive means small, poorly fitted or top-dose-only effect, or effect the other way; inactive means no such curve, though single readings can be large or run the other way.
Respond with a class label; see Y for active, N for inactive

Solved cases below.
MOLECULE | ANSWER_LABEL
C=CC(=O)N1CCc2ccc(-n3c(=O)ccc4cnc5ccc(-c6cnn(C)c6)cc5c43)cc21 | Y
N#CC(=Cc1ccc(O)c(O)c1)C(=O)NCc1ccccc1 | Y
CC[C@H](CC[C@@H](C)[C@H]1CC[C@H]2[C@@H]3CC=C4C[C@@H](O)CC[C@]4(C)[C@@H]3CC[C@]12C)C(C)C | N

Assay result, entry C=C1CCC2[C@](C)(CO)C(O)CC[C@]2(C)C1CC=C1C(=O)OCC1O (some centres undefined) — outcome? N

Assay result, entry O=C(Nc1ccc(Oc2ccnc3[nH]ccc23)c(F)c1)c1cccn(-c2ccc(F)cc2)c1=O — outcome? Y

Assay result, entry O=c1[nH]c(=O)n([C@H]2C[C@@H](O)[C@@H](CO)O2)cc1C=CBr — outcome? N

Assay result, entry COc1cccc2c1C(=O)c1c(O)c3c(c(O)c1C2=O)C[C@@](O)(C(=O)CO)C[C@H]3O[C@H]1C[C@H](N)[C@H](O)[C@H](C)O1 — outcome? Y

Assay result, entry CC(=O)[C@]1(O)Cc2c(O)c3c(c(O)c2[C@@H](O[C@H]2C[C@H](N)[C@@H](O)[C@H](C)O2)C1)C(=O)c1ccccc1C3=O — outcome? Y

Assay result, entry CC(C)C[C@H](NC(=O)[C@@H](NC(=O)c1cccc(-c2ccccc2)n1)[C@@H](C)O)B(O)O — outcome? Y

Assay result, entry C[C@H]1C[C@H]2[C@@H]3CCC4=CC(=O)C=C[C@]4(C)[C@@H]3C(=O)C[C@]2(C)[C@@]1(O)C(=O)CO — outcome? N

Assay result, entry CN1C(C(=O)Nc2ccccn2)=C(O)c2sc(Cl)cc2S1(=O)=O — outcome? Y

###

experiment: Quantitative High-Throughput drug screen in 47 multiple myeloma cell lines against the NCATS MIPE library collection: XG1_PLB cell viability assay (AID 1919866); conditions: CellTiter-Glo ATP, 48 h; series mostly up to 45.8 µM; also: nearly all actives have a fitted effect of over 35% in size
Results filed as inconclusive are left out. Activity calls are given as the source filed them. Calls come from the whole dose curve; as a rule, active = well fitted cell-killing curve with a large enough effect; inconclusive = small, poorly fitted or top-dose-only effect, or effect the other way; inactive = no such curve, though single readings can be large or run the other way.
Respond with a class label; see active, inactive

Solved cases below.
MOLECULE | ANSWER_LABEL
CC(C)(N)c1ccc(-c2nc3ccccc3nc2-c2ccccc2)cc1 | active
O=c1[nH]c(=O)n([C@H]2C[C@@H](O)[C@@H](CO)O2)cc1F | active
O=C(O)C[C@H](O)C[C@H](O)C=Cc1c(C2CC2)nc2ccccc2c1-c1ccc(F)cc1 | active

Assay result, entry CC(C=CC1=C(C)CCCC1(C)C)=CC=CC(C)=CC(=O)Nc1ccc(O)cc1 — outcome? active

Assay result, entry COc1cccc2c1C(=O)c1c(O)c3c(c(O)c1C2=O)C[C@@](O)(C(=O)CO)C[C@H]3O[C@H]1C[C@H](N)[C@H](O)[C@H](C)O1 — outcome? active

Assay result, entry C#C[C@]1(O)CC[C@@H]2[C@@H]3CCc4cc(O)ccc4[C@H]3CC[C@@]21C — outcome? active

Assay result, entry Cc1ccc(O)c(C(CCN(C(C)C)C(C)C)c2ccccc2)c1 (stereo not given) — outcome? inactive
